target: T1, human tissue factor (human TF, Lake Pharma) (human, UniProt P13726 33-251, limits assumed); experiment: Biacore SPR kinetics, antibody captured on anti-Fc, 1:1 Langmuir fit
T1 construct: bought recombinant antigen; also called CD142
T1 sequence (P13726 33-251 limits assumed): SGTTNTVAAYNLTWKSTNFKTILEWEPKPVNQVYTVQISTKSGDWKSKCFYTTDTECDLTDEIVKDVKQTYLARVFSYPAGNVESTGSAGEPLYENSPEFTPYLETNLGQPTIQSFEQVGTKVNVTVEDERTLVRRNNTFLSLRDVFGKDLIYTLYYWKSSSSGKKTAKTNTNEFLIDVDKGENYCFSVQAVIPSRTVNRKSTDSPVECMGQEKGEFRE
value-kind: Kd (nM)

binder	obs-value
mAb 47: aTF_2842-B01_HC3_Y180/F404TAG; aTF_2842-B01_LC1 (antibody, IgG1, V domains shown, non-natural amino acid (pAMF) at TAG sites Y180 and F404 (EU), * in the sequence, unconjugated full-length IgG1/kappa; also called 2842-B01 HC3/LC1) VH: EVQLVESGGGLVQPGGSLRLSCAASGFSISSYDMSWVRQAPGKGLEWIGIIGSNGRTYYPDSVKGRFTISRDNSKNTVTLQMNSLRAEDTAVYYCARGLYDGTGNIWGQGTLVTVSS VL: DLQMTQSPSSLSASVGDRVTITCRASQSVYGNNWLSWYQQKPGKAPKLLIYGASKLASGVPSRFSGSGSGTQFTLTISSLQPEDFATYYCQGTYYSGDWYFAFGQGTKVEIKR	7.81
